Target: hNav1.7 (Homo sapiens (Human))
Assay: Tritiated compound binding to membranes from cells expressing hNav1.7 and the β1 subunit, modified protocol (LBA, Ex. 243B)
Settings: 300 pM [3H]compound, room temperature, read-out: Nav1.7 LBA (Ex. 243B) IC50
Sequence (Q15858 whole entry, looked up): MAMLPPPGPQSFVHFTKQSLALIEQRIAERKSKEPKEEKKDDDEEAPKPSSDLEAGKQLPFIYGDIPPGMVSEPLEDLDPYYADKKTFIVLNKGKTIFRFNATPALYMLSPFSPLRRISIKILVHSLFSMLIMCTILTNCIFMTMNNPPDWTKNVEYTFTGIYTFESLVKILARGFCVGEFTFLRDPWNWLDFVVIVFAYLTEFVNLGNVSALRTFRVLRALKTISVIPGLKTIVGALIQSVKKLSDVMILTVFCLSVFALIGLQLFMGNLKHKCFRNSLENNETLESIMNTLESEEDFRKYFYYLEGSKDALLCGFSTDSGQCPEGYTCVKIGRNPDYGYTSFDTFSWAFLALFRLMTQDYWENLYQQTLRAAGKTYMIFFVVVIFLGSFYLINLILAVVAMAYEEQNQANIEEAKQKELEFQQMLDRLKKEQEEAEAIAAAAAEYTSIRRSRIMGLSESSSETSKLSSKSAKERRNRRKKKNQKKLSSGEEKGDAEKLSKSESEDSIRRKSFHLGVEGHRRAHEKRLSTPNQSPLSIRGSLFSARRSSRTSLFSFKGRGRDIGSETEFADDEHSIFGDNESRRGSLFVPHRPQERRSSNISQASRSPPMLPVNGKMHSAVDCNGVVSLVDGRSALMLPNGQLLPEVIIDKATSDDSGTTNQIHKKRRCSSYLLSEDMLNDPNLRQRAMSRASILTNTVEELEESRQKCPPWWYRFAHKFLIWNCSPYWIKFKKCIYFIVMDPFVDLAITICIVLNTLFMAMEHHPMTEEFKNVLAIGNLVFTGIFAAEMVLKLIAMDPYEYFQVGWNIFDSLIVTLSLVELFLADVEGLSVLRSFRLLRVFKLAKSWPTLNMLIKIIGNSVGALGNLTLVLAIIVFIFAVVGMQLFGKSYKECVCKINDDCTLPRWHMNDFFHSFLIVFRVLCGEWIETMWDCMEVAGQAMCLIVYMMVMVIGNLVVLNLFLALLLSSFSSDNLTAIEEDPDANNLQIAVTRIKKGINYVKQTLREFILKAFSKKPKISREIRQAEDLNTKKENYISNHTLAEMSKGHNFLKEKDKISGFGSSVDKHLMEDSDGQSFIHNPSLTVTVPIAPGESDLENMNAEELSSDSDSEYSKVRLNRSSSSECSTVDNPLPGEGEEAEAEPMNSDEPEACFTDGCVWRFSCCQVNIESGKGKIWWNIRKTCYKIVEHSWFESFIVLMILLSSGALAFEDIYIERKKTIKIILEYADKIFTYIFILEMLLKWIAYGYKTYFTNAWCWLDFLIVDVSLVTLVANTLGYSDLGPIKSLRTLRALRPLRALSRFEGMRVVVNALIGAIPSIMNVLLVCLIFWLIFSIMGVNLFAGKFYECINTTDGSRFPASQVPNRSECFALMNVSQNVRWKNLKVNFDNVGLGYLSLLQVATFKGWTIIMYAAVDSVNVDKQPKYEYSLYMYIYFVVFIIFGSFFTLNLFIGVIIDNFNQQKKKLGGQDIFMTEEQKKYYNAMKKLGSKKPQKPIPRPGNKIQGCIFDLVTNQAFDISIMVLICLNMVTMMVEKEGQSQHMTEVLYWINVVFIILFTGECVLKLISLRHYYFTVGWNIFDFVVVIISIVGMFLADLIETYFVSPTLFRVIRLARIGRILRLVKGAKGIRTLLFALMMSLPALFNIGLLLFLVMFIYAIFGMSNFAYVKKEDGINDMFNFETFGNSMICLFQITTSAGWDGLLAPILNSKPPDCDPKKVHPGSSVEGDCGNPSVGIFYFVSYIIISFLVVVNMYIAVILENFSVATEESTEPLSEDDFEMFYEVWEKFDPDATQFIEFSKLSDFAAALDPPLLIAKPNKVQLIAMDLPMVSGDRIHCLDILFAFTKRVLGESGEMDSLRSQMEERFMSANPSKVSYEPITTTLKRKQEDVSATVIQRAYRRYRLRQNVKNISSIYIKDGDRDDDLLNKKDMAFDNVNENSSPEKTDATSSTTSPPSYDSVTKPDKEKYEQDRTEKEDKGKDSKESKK
Sequence (Q07699 whole entry partner, looked up): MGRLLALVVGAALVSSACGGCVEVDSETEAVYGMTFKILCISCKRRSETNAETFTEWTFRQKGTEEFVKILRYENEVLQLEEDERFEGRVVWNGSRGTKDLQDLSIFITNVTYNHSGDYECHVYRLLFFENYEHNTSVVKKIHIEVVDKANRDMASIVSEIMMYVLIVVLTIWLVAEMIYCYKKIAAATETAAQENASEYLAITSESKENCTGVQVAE
pIC50: −log10 of the molar value. Where a name gives a salt, the structure may show the parent alone.
Assign class by pIC50: not lower than 7 means Satisfied; lower than 7 means Not satisfied.

For orientation, consider the following solved cases.
> print(dat)
                                   molecule  assigned.class
1  CN(C)[C@H]1CCCC[C@@H]1Nc1cc(F)c(S(=O)(=O)Nc2cccc(F)n2)cc1Cl   Not satisfied
2  O=S(=O)(Nc1nccs1)c1cc(Cl)c(N[C@@H]2CCCC[C@H]2N2CC3CC3C2)cc1F (some centres unmarked)   Not satisfied
3  O=S(=O)(Nc1nccs1)c1cc(Cl)c(N[C@H]2CCCC[C@@H]2N2CCC[C@@](F)(CO)C2)cc1F   Not satisfied
4  CN(C)[C@@H]1Cc2ccccc2C[C@H]1Nc1cc(F)c(S(=O)(=O)Nc2nccs2)cc1Cl       Satisfied
5  CC(=O)N(C)[C@H]1CCCC[C@@H]1Nc1cc(F)c(S(=O)(=O)Nc2nccs2)cc1Cl   Not satisfied
6  CN([C@H]1C[C@@H](O)C1)[C@H]1CCCC[C@@H]1Nc1cc(F)c(S(=O)(=O)Nc2nccs2)cc1Cl [Example 156, formate]   Not satisfied
7  CN(CC(C)(C)O)[C@H]1CCCC[C@@H]1Nc1cc(F)c(S(=O)(=O)Nc2nccs2)cc1Cl [Example 116, formate]   Not satisfied
8  CN1CC(N(CC(F)(F)F)[C@H]2CCCC[C@@H]2Nc2cc(F)c(S(=O)(=O)Nc3nccs3)cc2Cl)C1   Not satisfied

hey, is pIC50 for this one >= 7? CN(C)[C@@H]1CC(F)(F)CC[C@H]1Nc1cc(F)c(S(=O)(=O)Nc2nccs2)cc1Cl [Example 188, formate]
Not satisfied

hey, is pIC50 for this one >= 7? `CN(C)[C@H]1C[C@@H](c2cccc(C(F)(F)F)c2)CC[C@@H]1Nc1cc(F)c(S(=O)(=O)Nc2ccncn2)cc1C1CCC1`
Satisfied

hey, is pIC50 for this one >= 7? `CN(C)[C@H]1C[C@@H](c2ccccc2)CC[C@@H]1Nc1cc(F)c(S(=O)(=O)Nc2ccncn2)cc1Cl`
Satisfied

hey, is pIC50 for this one >= 7? `CN(C)[C@H]1C[C@H](c2cccc(C(F)(F)F)c2)CC[C@@H]1Nc1cc(F)c(S(=O)(=O)Nc2nccs2)cc1Cl`
Satisfied

---

Catalogue of molecules with associated IC50
Target: hNav1.7 (Homo sapiens (Human))
Experiment: Tritiated compound binding to membranes from cells expressing hNav1.7 and the β1 subunit, modified protocol (LBA, Ex. 243B)
Details: 300 pM [3H]compound, room temperature, read-out: Nav1.7 LBA (Ex. 243B) IC50
Structures can show the parent of a compound that is named as a salt.
Numeric only. Scale: nM

Example molecules with recorded IC50:
> print(dat)
                                   molecule                 target.of.assay  readout.kind  numeric.readout
1  CN(c1cnn(C)c1)[C@H]1CCCC[C@@H]1Nc1cc(F)c(S(=O)(=O)Nc2nccs2)cc1Cl  hNav1.7 (Homo sapiens (Human))          IC50              170
2  O=S(=O)(Nc1ccncn1)c1cc(Cl)c(N[C@H]2CCCC[C@@H]2N2CCC[C@@](F)(CO)C2)cc1F  hNav1.7 (Homo sapiens (Human))          IC50              464
3  CN(C)[C@H]1C[C@@H](c2cccc(C(F)(F)F)c2)CC[C@@H]1Nc1cc(F)c(S(=O)(=O)Nc2ccncn2)cc1C1CC1 [Example 230, formate]  hNav1.7 (Homo sapiens (Human))          IC50            0.627
4  CN(C)[C@H]1C[C@@H](c2cccc(C(F)(F)F)c2)CC[C@@H]1Nc1ccc(S(=O)(=O)Nc2ccncn2)c(F)c1 [Example 237, formate]  hNav1.7 (Homo sapiens (Human))          IC50             2.43
5  CN(CCO)[C@H]1CCCC[C@@H]1Nc1cc(F)c(S(=O)(=O)Nc2nccs2)cc1Cl [Example 38, formate]  hNav1.7 (Homo sapiens (Human))          IC50             34.9

Recorded IC50 of CN(C)[C@H]1C[C@@H](c2cccc(C(F)(F)F)c2)CC[C@@H]1Nc1cc(F)c(S(=O)(=O)Nc2ccncn2)cc1O [Example 240, formate] , please.
15

---

Biological target: hNav1.7 (Homo sapiens (Human), UniProt Q15858)
Assay: Tritiated compound binding to membranes from cells expressing hNav1.7 and the β1 subunit, competitive binding (LBA, Ex. 243A)
Conditions: 100 pM [3H]compound, 18 h, room temperature; read-out: Nav1.7 LBA (Ex. 243A) IC50
Structures can show the parent of a compound that is named as a salt.
readout kind: IC50 (nM)
Numeric only. Scale: nM

Example compounds with recorded IC50:
> print(dat)
                                    compound  readout.kind  numeric.readout
 1  CN(C)[C@H]1CCCC[C@@H]1Nc1ccc(S(=O)(=O)Nc2nccs2)cc1[N+](=O)[O-] [Example 28]          IC50              199
 2  CC(O)CN(C)[C@H]1CCCC[C@@H]1Nc1cc(F)c(S(=O)(=O)Nc2nccs2)cc1Cl (stereo partly drawn) [Example 45]          IC50             12.7
 3  O=S(=O)(Nc1nccs1)c1cc(Cl)c(N[C@H]2CCCC[C@@H]2N2CCC(F)C2)cc1F (stereo partly drawn) [Example 104]          IC50             35.6
 4  CN(C)[C@@H]1CC[C@H](C(F)(F)F)C[C@H]1Nc1cc(F)c(S(=O)(=O)Nc2nccs2)cc1Cl [Example 84]          IC50             3000
 5  O=S(=O)(Nc1cccc(F)n1)c1cc(Cl)c(N[C@H]2CCCC[C@@H]2N2CCCC2)cc1F [Example 99]          IC50             65.5
 6  CCN[C@H]1CCCC[C@@H]1Oc1cc(F)c(S(=O)(=O)Nc2ccncn2)cc1C1CC1 [Example 96]          IC50              630
 7  CN(C)[C@H]1CCCC[C@@H]1Nc1cc(F)c(S(=O)(=O)Nc2cccc(Cl)n2)cc1Cl [Example 85]          IC50              252
 8  CN(C)[C@H]1CCCC[C@@H]1Nc1cc(F)c(S(=O)(=O)Nc2cccc(F)n2)cc1Cl [Example 35]          IC50             65.5
 9  CCN(C)[C@H]1CCCC[C@@H]1Nc1cc(F)c(S(=O)(=O)Nc2cccc(F)n2)cc1Cl [Example 71]          IC50             41.3
10  CCN[C@H]1CCCC[C@@H]1Nc1cc(F)c(S(=O)(=O)Nc2nccs2)cc1C1CC1 [Example 64, formate]          IC50             11.6

Recorded IC50 of COCCN(C)[C@H]1CCCC[C@@H]1Nc1cc(F)c(S(=O)(=O)Nc2nccs2)cc1Cl [Example 32, formate] , please.
38.2

Recorded IC50 of O=S(=O)(Nc1nccs1)c1cc(Cl)c(N[C@H]2CCCC[C@@H]2N2CC[C@H](O)C2)cc1F [Example 67] , please.
17.3

---

Biological target: hNav1.7 (Homo sapiens (Human))
Test: Patch voltage clamp electrophysiology assay (EP), Syncropatch 384PE, CHO cells expressing Nav1.7
Type: cell-based
Conditions: holding potential -50 mV; […] compound incubation; read-out: EP_SP hNav1.7 (Ex. 243B) IC50
Sequence (Q15858 other isoform, or with tags, fused parts or gaps): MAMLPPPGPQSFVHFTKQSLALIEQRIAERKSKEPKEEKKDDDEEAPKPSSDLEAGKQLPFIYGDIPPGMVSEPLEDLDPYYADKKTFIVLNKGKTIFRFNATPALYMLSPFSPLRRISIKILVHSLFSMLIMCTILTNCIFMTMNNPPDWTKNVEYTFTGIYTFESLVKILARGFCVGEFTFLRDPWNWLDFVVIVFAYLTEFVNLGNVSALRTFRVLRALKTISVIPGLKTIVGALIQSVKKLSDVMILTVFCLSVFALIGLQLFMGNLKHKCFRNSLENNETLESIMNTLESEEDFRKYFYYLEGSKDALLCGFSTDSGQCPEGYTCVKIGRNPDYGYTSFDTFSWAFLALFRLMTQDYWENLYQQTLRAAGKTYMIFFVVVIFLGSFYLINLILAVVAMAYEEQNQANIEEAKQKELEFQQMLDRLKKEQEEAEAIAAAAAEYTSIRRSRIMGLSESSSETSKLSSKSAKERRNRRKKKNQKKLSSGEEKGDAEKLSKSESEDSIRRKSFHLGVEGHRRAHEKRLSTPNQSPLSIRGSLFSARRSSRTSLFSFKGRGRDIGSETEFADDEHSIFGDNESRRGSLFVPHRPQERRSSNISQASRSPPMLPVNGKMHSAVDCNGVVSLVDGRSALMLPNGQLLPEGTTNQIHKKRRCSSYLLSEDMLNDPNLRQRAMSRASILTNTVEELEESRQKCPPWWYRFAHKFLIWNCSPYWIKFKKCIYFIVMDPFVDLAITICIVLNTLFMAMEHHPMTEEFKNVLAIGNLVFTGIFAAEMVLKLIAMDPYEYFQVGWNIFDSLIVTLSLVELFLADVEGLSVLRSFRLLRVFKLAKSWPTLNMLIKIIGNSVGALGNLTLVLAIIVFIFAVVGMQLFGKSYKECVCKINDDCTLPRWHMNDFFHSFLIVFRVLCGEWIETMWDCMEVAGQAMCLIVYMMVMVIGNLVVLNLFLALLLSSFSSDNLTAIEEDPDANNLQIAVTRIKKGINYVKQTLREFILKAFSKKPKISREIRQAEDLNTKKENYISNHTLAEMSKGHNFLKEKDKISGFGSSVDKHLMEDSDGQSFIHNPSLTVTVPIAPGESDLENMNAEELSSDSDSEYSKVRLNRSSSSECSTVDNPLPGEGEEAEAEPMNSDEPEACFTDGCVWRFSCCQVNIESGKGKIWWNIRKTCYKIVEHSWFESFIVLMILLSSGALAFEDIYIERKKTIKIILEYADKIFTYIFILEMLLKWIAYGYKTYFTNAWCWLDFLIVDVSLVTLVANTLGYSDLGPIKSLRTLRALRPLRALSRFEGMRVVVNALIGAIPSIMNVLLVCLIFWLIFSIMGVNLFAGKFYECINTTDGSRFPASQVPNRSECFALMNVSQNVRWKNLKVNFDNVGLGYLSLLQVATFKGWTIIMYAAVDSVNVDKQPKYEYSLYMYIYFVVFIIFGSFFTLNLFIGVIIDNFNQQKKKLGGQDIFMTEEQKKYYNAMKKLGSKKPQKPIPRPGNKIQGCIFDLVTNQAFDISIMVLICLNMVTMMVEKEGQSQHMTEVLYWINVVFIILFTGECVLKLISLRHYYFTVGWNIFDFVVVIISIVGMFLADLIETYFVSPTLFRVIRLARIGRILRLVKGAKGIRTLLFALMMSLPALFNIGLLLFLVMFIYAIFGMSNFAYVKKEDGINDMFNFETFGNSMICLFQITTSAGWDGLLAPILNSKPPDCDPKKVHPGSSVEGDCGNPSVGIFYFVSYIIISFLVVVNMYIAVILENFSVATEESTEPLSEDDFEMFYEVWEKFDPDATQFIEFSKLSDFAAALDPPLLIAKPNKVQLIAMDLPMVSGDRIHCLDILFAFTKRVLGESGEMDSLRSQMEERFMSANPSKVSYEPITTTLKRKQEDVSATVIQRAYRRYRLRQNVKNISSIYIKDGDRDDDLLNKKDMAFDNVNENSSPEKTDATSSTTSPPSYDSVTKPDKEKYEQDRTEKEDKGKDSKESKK
Structures can show the parent of a compound that is named as a salt.
Catalogue of compounds with associated pIC50
Reminder that pIC50 means the negative base-10 logarithm of the concentration expressed in mol/L.

> print(dat)
                                   compound                 target.of.assay  numeric.readout
1  CC(=O)N(C)[C@H]1CCCC[C@@H]1Nc1cc(F)c(S(=O)(=O)Nc2nccs2)cc1Cl  hNav1.7 (Homo sapiens (Human))             7.86
2  CN1CCC(N(C)[C@H]2CCCC[C@@H]2Nc2cc(F)c(S(=O)(=O)Nc3cccc(F)n3)cc2Cl)CC1  hNav1.7 (Homo sapiens (Human))             8.06
3  CN(C)[C@H]1C[C@H]2[C@@H](C[C@@H]1Nc1cc(F)c(S(=O)(=O)Nc3nccs3)cc1Cl)C2(Cl)Cl [Example 196, formate]  hNav1.7 (Homo sapiens (Human))             6.92

Recorded pIC50 of `CN(C)[C@H]1Cc2ccccc2C[C@@H]1Nc1cc(F)c(S(=O)(=O)Nc2nccs2)cc1Cl` , please.
6.29

Recorded pIC50 of `O=S(=O)(Nc1nccs1)c1cc(Cl)c(N[C@H]2CCCC[C@@H]2N2CCC[C@@](F)(CO)C2)cc1F` , please.
7.86

Recorded pIC50 of `CN(C)[C@H]1C[C@H](c2cccc(C(F)(F)F)c2)CC[C@@H]1Nc1cc(F)c(S(=O)(=O)Nc2nccs2)cc1Cl` , please.
8.91

Recorded pIC50 of CN(C)[C@H]1CCCC[C@@H]1Nc1cc(F)c(S(=O)(=O)Nc2cccc(F)n2)cc1C1CC1 [Example 107, formate] , please.
7.74

Recorded pIC50 of `Cc1nc(NS(=O)(=O)c2cc(Cl)c(N[C@H]3CCCC[C@@H]3N(C)C)cc2F)sc1Cl` , please.
7.91

Recorded pIC50 of `CN(c1cnn(C)c1)[C@H]1CCCC[C@@H]1Nc1cc(F)c(S(=O)(=O)Nc2nccs2)cc1Cl` , please.
7.88

Recorded pIC50 of O=S(=O)(Nc1cccc(F)n1)c1cc(Cl)c(N[C@@H]2CCCC[C@H]2N2CC3CC3C2)cc1F (stereo partly shown) , please.
7.13

Recorded pIC50 of CN(C)[C@H]1C[C@@H](c2cccc(C(F)(F)F)c2)CC[C@@H]1Nc1cc(F)c(S(=O)(=O)Nc2ccncn2)cc1O [Example 240, formate] , please.
8.54

Recorded pIC50 of CN(C)[C@H]1CC2C(C[C@@H]1Nc1cc(F)c(S(=O)(=O)Nc3nccs3)cc1Cl)C2(F)F (stereo in doubt) [Example 209] , please.
8.03

Recorded pIC50 of O=S(=O)(Nc1ccncn1)c1cc(Cl)c(N[C@@H]2CCCC[C@H]2N2CC3C(C2)C3(F)F)cc1F (stereo partly shown) , please.
5.82

Recorded pIC50 of `CC(C)CC(=O)N1CC(N(C)[C@H]2CCCC[C@@H]2Nc2cc(F)c(S(=O)(=O)Nc3nccs3)cc2Cl)C1` , please.
7.57

Recorded pIC50 of CC1(O)CCN([C@H]2CCCC[C@@H]2Nc2cc(F)c(S(=O)(=O)Nc3nccs3)cc2Cl)CC1 [Example 150, formate] , please.
6.99

Recorded pIC50 of `CN(C)[C@H]1CCCC[C@@H]1Nc1cc(F)c(S(=O)(=O)Nc2cccc(F)n2)cc1Cl` , please.
7.22
